Entries and their measured log10 IC50 follow.
# system.under.test: CFTR channel in human colonic T84 cells (Homo sapiens, UniProt P13569)
# Construct: results in the phosphorylation and opening of CFTR anion channels; host or cells: human colonic T84 cells
# Sequence (P13569 whole entry): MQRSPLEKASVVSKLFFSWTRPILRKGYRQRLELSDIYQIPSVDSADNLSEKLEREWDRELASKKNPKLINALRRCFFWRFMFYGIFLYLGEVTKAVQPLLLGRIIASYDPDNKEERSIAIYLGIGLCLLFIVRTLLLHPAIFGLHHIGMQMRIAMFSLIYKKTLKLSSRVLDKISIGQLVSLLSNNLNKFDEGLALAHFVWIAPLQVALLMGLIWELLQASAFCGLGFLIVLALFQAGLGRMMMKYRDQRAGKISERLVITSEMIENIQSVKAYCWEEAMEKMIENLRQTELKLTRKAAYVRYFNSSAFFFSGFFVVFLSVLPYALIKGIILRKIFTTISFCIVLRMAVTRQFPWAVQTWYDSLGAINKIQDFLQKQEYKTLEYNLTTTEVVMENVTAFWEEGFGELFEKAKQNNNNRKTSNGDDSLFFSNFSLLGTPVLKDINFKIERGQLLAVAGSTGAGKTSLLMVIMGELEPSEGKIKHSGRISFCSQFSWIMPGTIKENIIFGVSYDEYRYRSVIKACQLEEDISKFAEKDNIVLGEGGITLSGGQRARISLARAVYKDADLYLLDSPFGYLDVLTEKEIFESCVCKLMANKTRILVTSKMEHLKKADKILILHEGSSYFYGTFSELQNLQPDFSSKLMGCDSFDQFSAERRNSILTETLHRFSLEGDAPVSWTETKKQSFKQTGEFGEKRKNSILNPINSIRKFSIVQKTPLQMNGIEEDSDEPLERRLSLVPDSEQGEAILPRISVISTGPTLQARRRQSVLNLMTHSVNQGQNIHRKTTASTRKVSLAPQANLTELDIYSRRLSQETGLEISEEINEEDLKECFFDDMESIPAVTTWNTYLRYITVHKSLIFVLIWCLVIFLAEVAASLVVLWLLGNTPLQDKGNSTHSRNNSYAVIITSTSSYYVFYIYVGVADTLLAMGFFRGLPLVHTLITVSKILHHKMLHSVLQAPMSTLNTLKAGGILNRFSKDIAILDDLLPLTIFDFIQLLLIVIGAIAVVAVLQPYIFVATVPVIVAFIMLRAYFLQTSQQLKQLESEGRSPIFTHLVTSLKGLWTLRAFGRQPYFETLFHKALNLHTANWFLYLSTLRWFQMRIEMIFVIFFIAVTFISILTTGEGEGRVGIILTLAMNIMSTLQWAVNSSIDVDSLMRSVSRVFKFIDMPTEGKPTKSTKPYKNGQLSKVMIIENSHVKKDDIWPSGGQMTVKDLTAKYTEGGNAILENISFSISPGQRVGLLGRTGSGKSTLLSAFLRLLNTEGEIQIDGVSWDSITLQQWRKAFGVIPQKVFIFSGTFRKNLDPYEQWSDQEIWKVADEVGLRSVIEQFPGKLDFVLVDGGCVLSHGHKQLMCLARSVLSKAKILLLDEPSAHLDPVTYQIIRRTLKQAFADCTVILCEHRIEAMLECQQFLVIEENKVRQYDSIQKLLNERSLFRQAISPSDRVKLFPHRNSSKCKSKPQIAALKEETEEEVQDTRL
# procedure.text: T84 assay (FLIPR membrane potential dye, forskolin/IBMX-stimulated CFTR)
# Format: cell-based
# condition.set: average of at least 2 runs unless annotated n = 1
property.label: log10 IC50 (log10 of the value in µM)

[
  {
    "chemical.string": "CN(Cc1ccc(COc2ncc(-c3cc(Cl)c(O)c(Cl)c3)nn2)cc1)Cc1ccc(F)c(F)c1",
    "system.under.test": "CFTR channel in human colonic T84 cells (Homo sapiens, UniProt P13569)",
    "log10 IC50": 0.69
  },
  {
    "chemical.string": "Oc1c(Br)cc(-c2cnc(COc3ccc(Br)cc3)nn2)cc1Br",
    "system.under.test": "CFTR channel in human colonic T84 cells (Homo sapiens, UniProt P13569)",
    "log10 IC50": 1.18
  },
  {
    "chemical.string": "Oc1c(Br)cc(-c2cnc(OCCc3ccc(Cl)cc3Cl)nn2)cc1Br",
    "system.under.test": "CFTR channel in human colonic T84 cells (Homo sapiens, UniProt P13569)",
    "log10 IC50": -0.18
  },
  {
    "chemical.string": "CN(Cc1ccc(COc2ncc(-c3cc(Cl)c(O)c(Cl)c3)nn2)cc1)Cc1cccc(Oc2ccccn2)c1",
    "system.under.test": "CFTR channel in human colonic T84 cells (Homo sapiens, UniProt P13569)",
    "log10 IC50": 0.84
  },
  {
    "chemical.string": "Oc1c(Cl)cc(-c2cnc(OCCc3ccc(Br)cc3)nn2)cc1Cl",
    "system.under.test": "CFTR channel in human colonic T84 cells (Homo sapiens, UniProt P13569)",
    "log10 IC50": -0.21
  },
  {
    "chemical.string": "Oc1c(Br)cc(-c2cnc(OC(c3cccc(C(F)(F)F)c3)c3cccc(C(F)(F)F)c3)nn2)cc1Br",
    "system.under.test": "CFTR channel in human colonic T84 cells (Homo sapiens, UniProt P13569)",
    "log10 IC50": 1.09
  },
  {
    "chemical.string": "CN(Cc1ccc(COc2ncc(-c3cc(Cl)c(O)c(Cl)c3)nn2)cc1)Cc1ccc(-c2ncccn2)cc1",
    "system.under.test": "CFTR channel in human colonic T84 cells (Homo sapiens, UniProt P13569)",
    "log10 IC50": 0.27
  },
  {
    "chemical.string": "Oc1c(Br)cc(-c2cnc(OCc3cccc(Oc4ccccc4)c3)nn2)cc1Br",
    "system.under.test": "CFTR channel in human colonic T84 cells (Homo sapiens, UniProt P13569)",
    "log10 IC50": -0.25
  }
]
